SYSTEM UNDER TEST: T1, IL-23R on DB cells (human, UniProt Q5VWK5 24-629)
T1 sequence (looked up): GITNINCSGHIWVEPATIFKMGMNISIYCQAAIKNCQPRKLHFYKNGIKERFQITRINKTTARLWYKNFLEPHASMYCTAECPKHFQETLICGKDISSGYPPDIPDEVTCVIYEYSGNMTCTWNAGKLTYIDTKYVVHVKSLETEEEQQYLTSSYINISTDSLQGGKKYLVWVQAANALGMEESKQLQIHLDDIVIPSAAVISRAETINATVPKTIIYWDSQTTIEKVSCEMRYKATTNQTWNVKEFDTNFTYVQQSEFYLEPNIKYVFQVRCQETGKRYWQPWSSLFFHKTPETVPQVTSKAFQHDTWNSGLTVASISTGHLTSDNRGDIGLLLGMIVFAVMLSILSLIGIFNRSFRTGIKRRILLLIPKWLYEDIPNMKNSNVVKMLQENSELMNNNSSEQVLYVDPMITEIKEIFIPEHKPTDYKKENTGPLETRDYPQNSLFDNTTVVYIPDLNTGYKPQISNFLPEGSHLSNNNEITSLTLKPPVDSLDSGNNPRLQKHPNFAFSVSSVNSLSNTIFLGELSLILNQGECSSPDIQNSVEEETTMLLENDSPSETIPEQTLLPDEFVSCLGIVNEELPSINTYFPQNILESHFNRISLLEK
PROCEDURE SUMMARY: cell-based or functional assay
Bridges are numbered along the chain shown (N, C = ends). [ ]: non-standard residue; d: D form. 2Nal = N[C@@H](Cc1ccc2ccccc2c1)C(=O)O; AEF = NCCOc1ccc(C[C@H](N)C(=O)O)cc1; Pen = CC(C)(S)[C@H](N)C(=O)O; Aib = CC(C)(N)C(=O)O
The entries below come with measured pStat3 HTRF IC50 values attached.

The examples below pair each entry with its known result.
>  <BINDER>
XNTWQXFXXKNA (Ac; Pen-Pen disulfide; Phe(4-OMe); 2-Nal; Aib; Lys(Ac); NH2) [Ac-[Pen]-NTWQ-[Pen]-[Phe(4-OMe)]-[2-Nal]-[Aib]-[Lys(Ac)]-NA-NH2]

>  <pStat3 HTRF IC50>
< 10 nM

$$$$
>  <BINDER>
Ac-[Pen]TTWQ[Pen][AEF][2Nal][Aib]K(Ac)NQ-NH2 (disulfide 1-6 (inferred)) [Ac-[Pen]-TTWQ-[Pen]-[Phe[4-(2-aminoethoxy)]-[2-Nal]-[Aib]-[Lys(Ac)]-NQ-NH2]

>  <pStat3 HTRF IC50>
< 10 nM

$$$$

As a next step, examine the binder that follows.
Query block: Quick one: pStat3 HTRF IC50 for Ac-[Pen]TTWQ[Pen][AEF][2Nal][Aib]K(Ac)NN-NH2 (disulfide 1-6 (inferred)) [Ac-[Pen]-TTWQ-[Pen]-[Phe[4-(2-aminoethoxy)]-[2-Nal]-[Aib]-[Lys(Ac)]-NN-NH2] ?
Result block: < 10 nM
